ASSAY TARGET: DYNC1H1 Cytoplasmic dynein 1 heavy chain 1 (Homo sapiens)
Construct: isoTOP-ABPP experiments performed in cell lysates (in vitro); endogenous in cells; host or cells: soluble proteome of human cancer cell lines (MDA-MB-231, Ramos, Jurkat)
Sequence (Q14204 whole entry): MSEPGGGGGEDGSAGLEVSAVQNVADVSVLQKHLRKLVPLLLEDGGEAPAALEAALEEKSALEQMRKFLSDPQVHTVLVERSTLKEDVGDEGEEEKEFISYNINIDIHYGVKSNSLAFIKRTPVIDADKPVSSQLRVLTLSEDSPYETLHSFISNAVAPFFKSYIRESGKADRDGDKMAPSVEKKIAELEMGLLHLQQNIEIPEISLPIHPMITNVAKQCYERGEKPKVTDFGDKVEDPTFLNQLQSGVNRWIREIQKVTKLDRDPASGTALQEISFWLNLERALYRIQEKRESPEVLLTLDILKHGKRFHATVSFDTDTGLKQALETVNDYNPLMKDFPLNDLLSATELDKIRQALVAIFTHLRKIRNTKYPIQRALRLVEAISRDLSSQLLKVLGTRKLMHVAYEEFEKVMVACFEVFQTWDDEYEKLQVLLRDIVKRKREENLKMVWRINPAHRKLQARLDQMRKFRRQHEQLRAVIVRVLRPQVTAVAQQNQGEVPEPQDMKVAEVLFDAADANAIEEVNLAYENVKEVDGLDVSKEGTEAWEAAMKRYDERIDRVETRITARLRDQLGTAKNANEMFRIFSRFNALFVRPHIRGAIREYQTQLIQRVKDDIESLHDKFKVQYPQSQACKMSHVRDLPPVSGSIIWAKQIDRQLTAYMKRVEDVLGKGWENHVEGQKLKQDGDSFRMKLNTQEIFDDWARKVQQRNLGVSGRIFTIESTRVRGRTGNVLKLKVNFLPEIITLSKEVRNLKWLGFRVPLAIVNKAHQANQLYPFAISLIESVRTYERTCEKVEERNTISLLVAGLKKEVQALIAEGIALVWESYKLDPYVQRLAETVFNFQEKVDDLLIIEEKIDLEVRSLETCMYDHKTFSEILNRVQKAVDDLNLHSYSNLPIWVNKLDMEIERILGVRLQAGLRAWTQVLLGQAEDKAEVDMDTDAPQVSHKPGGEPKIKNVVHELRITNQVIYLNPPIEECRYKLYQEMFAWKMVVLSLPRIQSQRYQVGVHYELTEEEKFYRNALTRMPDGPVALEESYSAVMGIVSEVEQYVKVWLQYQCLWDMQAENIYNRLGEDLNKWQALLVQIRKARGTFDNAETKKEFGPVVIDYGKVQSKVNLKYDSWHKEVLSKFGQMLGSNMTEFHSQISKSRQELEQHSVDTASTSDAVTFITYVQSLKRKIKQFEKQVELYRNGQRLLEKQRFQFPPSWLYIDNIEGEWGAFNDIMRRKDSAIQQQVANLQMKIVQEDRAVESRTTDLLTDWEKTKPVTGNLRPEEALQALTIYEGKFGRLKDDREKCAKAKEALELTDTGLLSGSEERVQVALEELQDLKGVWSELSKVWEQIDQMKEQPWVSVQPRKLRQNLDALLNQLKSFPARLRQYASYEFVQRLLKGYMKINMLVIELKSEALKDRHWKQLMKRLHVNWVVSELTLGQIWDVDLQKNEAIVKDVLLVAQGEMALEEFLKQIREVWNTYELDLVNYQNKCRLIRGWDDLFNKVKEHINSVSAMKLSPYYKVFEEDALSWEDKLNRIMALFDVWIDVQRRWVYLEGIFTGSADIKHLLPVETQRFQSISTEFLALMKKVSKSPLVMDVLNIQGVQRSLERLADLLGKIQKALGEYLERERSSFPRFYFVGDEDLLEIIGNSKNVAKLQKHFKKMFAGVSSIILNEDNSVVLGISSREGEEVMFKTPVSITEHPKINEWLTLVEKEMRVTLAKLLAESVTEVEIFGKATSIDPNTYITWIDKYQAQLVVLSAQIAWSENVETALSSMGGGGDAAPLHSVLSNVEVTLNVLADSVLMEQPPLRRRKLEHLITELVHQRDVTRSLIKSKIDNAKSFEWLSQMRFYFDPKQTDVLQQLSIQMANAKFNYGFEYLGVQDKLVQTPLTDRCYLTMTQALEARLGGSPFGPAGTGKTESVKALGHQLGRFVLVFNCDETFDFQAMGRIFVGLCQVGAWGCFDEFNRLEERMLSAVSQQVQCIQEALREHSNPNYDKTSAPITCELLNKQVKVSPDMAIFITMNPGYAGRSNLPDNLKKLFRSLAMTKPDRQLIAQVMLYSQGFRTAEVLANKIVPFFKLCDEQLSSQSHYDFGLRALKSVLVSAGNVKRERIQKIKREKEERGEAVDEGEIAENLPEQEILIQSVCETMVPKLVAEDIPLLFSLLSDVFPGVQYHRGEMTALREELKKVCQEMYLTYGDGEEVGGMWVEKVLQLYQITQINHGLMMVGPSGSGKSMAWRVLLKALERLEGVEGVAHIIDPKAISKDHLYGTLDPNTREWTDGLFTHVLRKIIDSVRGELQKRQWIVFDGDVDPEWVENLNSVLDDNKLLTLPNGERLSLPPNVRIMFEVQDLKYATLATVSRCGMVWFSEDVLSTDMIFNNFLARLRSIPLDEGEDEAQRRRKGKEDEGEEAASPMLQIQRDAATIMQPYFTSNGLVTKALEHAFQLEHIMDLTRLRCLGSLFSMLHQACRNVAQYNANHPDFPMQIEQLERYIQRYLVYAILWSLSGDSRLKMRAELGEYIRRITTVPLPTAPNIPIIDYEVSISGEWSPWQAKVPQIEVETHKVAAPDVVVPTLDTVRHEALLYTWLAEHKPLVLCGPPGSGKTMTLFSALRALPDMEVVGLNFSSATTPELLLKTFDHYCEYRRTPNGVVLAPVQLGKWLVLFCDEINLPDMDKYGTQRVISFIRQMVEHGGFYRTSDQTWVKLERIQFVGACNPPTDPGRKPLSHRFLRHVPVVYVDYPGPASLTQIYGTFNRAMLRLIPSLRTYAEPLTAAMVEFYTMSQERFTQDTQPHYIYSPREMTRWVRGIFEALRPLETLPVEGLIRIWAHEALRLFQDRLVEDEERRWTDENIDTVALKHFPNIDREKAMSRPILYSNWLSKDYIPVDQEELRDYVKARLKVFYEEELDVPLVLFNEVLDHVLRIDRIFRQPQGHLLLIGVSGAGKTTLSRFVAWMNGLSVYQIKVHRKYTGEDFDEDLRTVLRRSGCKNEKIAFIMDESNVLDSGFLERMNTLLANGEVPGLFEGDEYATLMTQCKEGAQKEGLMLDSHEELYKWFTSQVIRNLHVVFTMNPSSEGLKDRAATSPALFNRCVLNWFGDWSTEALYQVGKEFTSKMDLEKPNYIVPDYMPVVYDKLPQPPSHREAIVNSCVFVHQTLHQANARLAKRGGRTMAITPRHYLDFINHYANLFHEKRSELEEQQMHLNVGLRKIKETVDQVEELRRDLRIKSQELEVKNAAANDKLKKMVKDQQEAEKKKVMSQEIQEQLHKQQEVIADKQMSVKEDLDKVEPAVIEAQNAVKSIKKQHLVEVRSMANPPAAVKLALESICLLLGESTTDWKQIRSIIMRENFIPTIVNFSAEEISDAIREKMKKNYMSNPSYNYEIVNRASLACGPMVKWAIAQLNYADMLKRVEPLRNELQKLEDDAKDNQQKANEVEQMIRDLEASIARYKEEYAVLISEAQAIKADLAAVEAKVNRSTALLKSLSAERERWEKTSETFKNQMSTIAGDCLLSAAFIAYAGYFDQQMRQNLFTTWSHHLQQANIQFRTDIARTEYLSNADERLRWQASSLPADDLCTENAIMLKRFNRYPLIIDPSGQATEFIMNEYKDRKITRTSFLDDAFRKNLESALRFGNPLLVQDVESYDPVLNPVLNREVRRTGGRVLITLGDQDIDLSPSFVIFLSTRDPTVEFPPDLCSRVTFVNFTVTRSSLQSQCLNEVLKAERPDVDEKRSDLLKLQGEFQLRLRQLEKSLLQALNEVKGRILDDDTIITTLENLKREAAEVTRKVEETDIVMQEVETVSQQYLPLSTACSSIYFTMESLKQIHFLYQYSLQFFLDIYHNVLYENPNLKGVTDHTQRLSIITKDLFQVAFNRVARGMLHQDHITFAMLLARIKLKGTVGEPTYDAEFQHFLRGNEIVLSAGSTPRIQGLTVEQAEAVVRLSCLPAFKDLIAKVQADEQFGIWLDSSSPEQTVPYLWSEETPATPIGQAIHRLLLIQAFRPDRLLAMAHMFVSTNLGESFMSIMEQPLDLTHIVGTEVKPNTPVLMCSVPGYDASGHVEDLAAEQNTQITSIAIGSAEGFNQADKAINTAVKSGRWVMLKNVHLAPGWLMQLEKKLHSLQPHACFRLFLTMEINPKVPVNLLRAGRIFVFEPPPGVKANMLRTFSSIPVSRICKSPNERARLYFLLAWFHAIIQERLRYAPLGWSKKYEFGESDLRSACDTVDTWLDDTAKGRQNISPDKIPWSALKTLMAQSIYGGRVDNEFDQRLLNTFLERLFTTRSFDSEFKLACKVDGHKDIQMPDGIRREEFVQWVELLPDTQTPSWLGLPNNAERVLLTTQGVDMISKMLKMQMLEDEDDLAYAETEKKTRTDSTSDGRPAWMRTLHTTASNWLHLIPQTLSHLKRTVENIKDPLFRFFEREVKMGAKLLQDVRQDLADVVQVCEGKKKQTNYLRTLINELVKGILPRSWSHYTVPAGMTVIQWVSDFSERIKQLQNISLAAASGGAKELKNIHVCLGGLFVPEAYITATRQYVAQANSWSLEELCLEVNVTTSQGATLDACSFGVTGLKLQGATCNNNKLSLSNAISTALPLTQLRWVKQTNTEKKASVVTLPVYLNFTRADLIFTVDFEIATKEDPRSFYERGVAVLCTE
PROTOCOL SUMMARY: competitive isoTOP-ABPP
Assay type: binding
TEST PARAMETERS: 50 uM, in vitro, sol, 231
Entries and their isoTOP-ABPP ratio (R) at liganded lysine Q14204_K1649
Could you respond with only the numeric value?

Illustrative cases are given below, each with its answer.
O=C(Oc1ccc([N+](=O)[O-])cc1[N+](=O)[O-])c1ccc(Oc2ccccc2)cc1 [fragment 39, 2,4-Dinitrophenyl 4-phenoxybenzoate]    1.0
O=C(CC12CC3CC(CC(C3)C1)C2)Oc1ccc([N+](=O)[O-])cc1[N+](=O)[O-]    1.0
CC(=O)Oc1ccc([N+](=O)[O-])cc1[N+](=O)[O-] [fragment 43, 2,4-Dinitrophenyl acetate]    0.9
O=C(CCc1coc2cc(F)ccc2c1=O)Oc1ccc([N+](=O)[O-])cc1[N+](=O)[O-]    1.2

In plain terms, CC(C)(C)OC(=O)NCCCC(=O)Oc1ccc([N+](=O)[O-])cc1[N+](=O)[O-] has a documented isoTOP-ABPP ratio (R) at liganded lysine Q14204_K1649 of 1.0

In plain terms, O=C(Oc1ccc([N+](=O)[O-])cc1[N+](=O)[O-])C(c1ccccc1)(c1ccccc1)c1ccccc1 [fragment 42, 2,4-Dinitrophenyl 2,2,2-triphenylacetate] has a documented isoTOP-ABPP ratio (R) at liganded lysine Q14204_K1649 of 0.8

In plain terms, O=C(Oc1ccc([N+](=O)[O-])cc1[N+](=O)[O-])c1ccccc1Nc1cccc(C(F)(F)F)c1 has a documented isoTOP-ABPP ratio (R) at liganded lysine Q14204_K1649 of 0.8

In plain terms, O=C(Oc1ccc([N+](=O)[O-])cc1[N+](=O)[O-])c1ccc2ccccc2n1 has a documented isoTOP-ABPP ratio (R) at liganded lysine Q14204_K1649 of 1.0

* * *

ASSAY TARGET: ABCE1 ATP-binding cassette sub-family E member 1 (Homo sapiens, UniProt P61221)
Construct: isoTOP-ABPP experiments performed in cell lysates (in vitro); endogenous in cells; host or cells: soluble proteome of human cancer cell lines (MDA-MB-231, Ramos, Jurkat)
PROTOCOL SUMMARY: competitive isoTOP-ABPP
TEST PARAMETERS: 50 uM_231_sol_in vitro
OUTCOME MEASURE: isoTOP-ABPP ratio, lysine P61221_K478

Illustrative cases are given below, each with its answer.
O=C(Oc1c(F)c(F)c(C(F)(F)F)c(F)c1F)c1cc(C(F)(F)F)cc(C(F)(F)F)c1 [fragment 47]    1.4
NC(=O)c1cc(C(F)(F)F)cc(C(F)(F)F)c1 [fragment 51, reference compound]    0.9
O=C(CCc1ccc2c(c1)OCO2)Oc1ccc([N+](=O)[O-])cc1[N+](=O)[O-] [fragment 45]    1.5

Form field isoTOP-ABPP ratio, lysine P61221_K478 for item N#Cc1ccc(C(=O)Oc2ccc([N+](=O)[O-])cc2[N+](=O)[O-])cc1 [fragment 44, 2,4-Dinitrophenyl 4-cyanobenzoate] on ABCE1 ATP-binding cassette sub-family E member 1 (Homo sapiens, UniProt P61221): 0.9

Form field isoTOP-ABPP ratio, lysine P61221_K478 for item O=C(Oc1c(F)c(F)cc(F)c1F)c1cc(C(F)(F)F)cc(C(F)(F)F)c1 [fragment 48] on ABCE1 ATP-binding cassette sub-family E member 1 (Homo sapiens, UniProt P61221): 1.1

Form field isoTOP-ABPP ratio, lysine P61221_K478 for item O=C(ON1C(=O)CCC1=O)c1cc(C(F)(F)F)cc(C(F)(F)F)c1 [fragment 46] on ABCE1 ATP-binding cassette sub-family E member 1 (Homo sapiens, UniProt P61221): 11.4
